Record form. Attribute: inhibition at 0.1 µM. Fill in for each entry.
study-target: K. pneumoniae LpxH (KpLpxH) (Klebsiella pneumoniae subsp. pneumoniae (strain ATCC 700721 / MGH 78578), UniProt A6T5R0)
assay-details: LpxE-coupled malachite green LpxH activity assay (KpLpxH inhibition)
Format: biochemical
assay-conditions: 0.1 μM inhibitor; read-out: Percentage Inhibition of KpLpxH
Experimental: Evaluation of LpxH inhibition by analogs: After completing the synthesis of sulfonyl piperazine compounds with various forms of linkers, the KpLpxH inhibition was biochemically characterized by these analogs at 0.1 μM using the nonradioactive, colorimetric malachite green assay that we had previously reported. […] Such an enhanced potency requires the presence of the hydroxamate group, as its substitution with a carboxylate group in compound 7 reduced the compound activity (vi/v0=30±6%). […]
Numeric only. Scale: %

For this molecule ( O=C(NCCn1cc(C(=O)NO)nn1)Nc1ccc(S(=O)(=O)N2CCN(c3cc(Cl)cc(C(F)(F)F)c3)CC2)cc1 ), measured inhibition at 0.1 µM is 41

// field: inhibition at 0.1 µM; key: O=C(NCCCCc1cccn(O)c1=S)Nc1ccc(S(=O)(=O)N2CCN(c3cc(Cl)cc(C(F)(F)F)c3)CC2)cc1 ; value = 61

O=C(O)CCCCNC(=O)N1CCc2cc(S(=O)(=O)N3CCN(c4cc(Cl)cc(C(F)(F)F)c4)CC3)ccc21 yielded inhibition at 0.1 µM of 70

Entry under test: O=C(CCCCNC(=O)Nc1ccc(S(=O)(=O)N2CCN(c3cc(Cl)cc(C(F)(F)F)c3)CC2)cc1)NO . Its inhibition at 0.1 µM was 64

----------
study-target: K. pneumoniae LpxH (KpLpxH) (Klebsiella pneumoniae subsp. pneumoniae (strain ATCC 700721 / MGH 78578), UniProt A6T5R0)
assay-details: LpxE-coupled malachite green LpxH activity assay (KpLpxH inhibition)
Assay type: biochemical
assay-conditions: 0.1 μM inhibitor; normalized against KpLpxH activity in 10% DMSO; read-out: Percentage Activity of KpLpxH (vi/v0)
test-readout: remaining activity at 0.1 µM (%)
Give your result in % as a bare value.

The compound identified as O=C(NCCCCc1cccn(O)c1=S)Nc1ccc(S(=O)(=O)N2CCN(c3cc(Cl)cc(C(F)(F)F)c3)CC2)cc1 registered its remaining activity at 0.1 µM at 39

remaining activity at 0.1 µM reading for O=C(CCCCCC(=O)N1CCc2cc(S(=O)(=O)N3CCN(c4cc(Cl)cc(C(F)(F)F)c4)CC3)ccc21)NO : 93

remaining activity at 0.1 µM recorded for this compound, CC(=O)N1CCc2cc(S(=O)(=O)N3CCN(c4cccc(C(F)(F)F)c4)CC3)ccc21 [AZ1, reference compound] , is 78

GET /value?item= O=C(NCCn1cc(C(=O)NO)nn1)Nc1ccc(S(=O)(=O)N2CCN(c3cc(Cl)cc(C(F)(F)F)c3)CC2)cc1 &field=remaining activity at 0.1 µM returns 59

The reported value for O=C(CCCCNC(=O)Nc1ccc(S(=O)(=O)N2CCN(c3cc(Cl)cc(C(F)(F)F)c3)CC2)cc1)NO in terms of remaining activity at 0.1 µM is 36

The recorded remaining activity at 0.1 µM for entry O=C(O)CCCCCNC(=O)Nc1ccc(S(=O)(=O)N2CCN(c3cc(Cl)cc(C(F)(F)F)c3)CC2)cc1 equals 57

Recorded result, CC(=O)N1CCc2cc(S(=O)(=O)N3CCN(c4cc(Cl)cc(C(F)(F)F)c4)CC3)ccc21 , remaining activity at 0.1 µM: 21

Kindly note the recorded remaining activity at 0.1 µM for O=C(/C=C/CCCNC(=O)Nc1ccc(S(=O)(=O)N2CCN(c3cc(Cl)cc(C(F)(F)F)c3)CC2)cc1)NO , which is 34

In plain terms, O=C(CCCCNC(=O)N1CCc2cc(S(=O)(=O)N3CCN(c4cc(Cl)cc(C(F)(F)F)c4)CC3)ccc21)NO has a documented remaining activity at 0.1 µM of 18

So, O=C(CCCCCNC(=O)Nc1ccc(S(=O)(=O)N2CCN(c3cc(Cl)cc(C(F)(F)F)c3)CC2)cc1)NO ? Its remaining activity at 0.1 µM was 3

The measured remaining activity at 0.1 µM associated with O=C(O)CCCCNC(=O)N1CCc2cc(S(=O)(=O)N3CCN(c4cc(Cl)cc(C(F)(F)F)c4)CC3)ccc21 reads 30

----------
System: K. pneumoniae (ATCC 10031)
assay-details: MIC assay (broth microdilution), K. pneumoniae
Format: cell-based
assay-conditions: Klebsiella pneumoniae, ATCC10031; K. pneumoniae (ATCC 10031), in vitro; read-out: MIC
Text: The MIC assay protocol was adapted from the broth microdilution methods described by the National Committee for Clinical Laboratory Standards using 96-well plates as described previously. […] Finally, the culture is solubilized by addition of 2-propanol, and the results are read by taking the difference of the UV reading at both 570 and 690 nm. […]
test-readout: MIC (µg/mL)
Kindly provide the numeric value in µg/mL only, without the unit symbol.

The molecule identified as CC(=O)N1CCc2cc(S(=O)(=O)N3CCN(c4cc(Cl)cc(C(F)(F)F)c4)CC3)ccc21 registered its MIC at 0.83

The reported value for O=C(CCCCNC(=O)N1CCc2cc(S(=O)(=O)N3CCN(c4cc(Cl)cc(C(F)(F)F)c4)CC3)ccc21)NO in terms of MIC is 18.7

Notebook: O=C(CCCCCNC(=O)Nc1ccc(S(=O)(=O)N2CCN(c3cc(Cl)cc(C(F)(F)F)c3)CC2)cc1)NO , MIC read as 3.3

----------
Could you please report measured inhibition at 0.1 µM for the items listed next?
study-target: K. pneumoniae LpxH (KpLpxH) (Klebsiella pneumoniae subsp. pneumoniae (strain ATCC 700721 / MGH 78578))
assay-details: LpxE-coupled malachite green LpxH activity assay (KpLpxH inhibition)
Format: biochemical
assay-conditions: 0.1 μM inhibitor; read-out: Percentage Inhibition of KpLpxH
// return numeric value only (unit: %, not printed)

// sample O=C(CCCCCNC(=O)Nc1ccc(S(=O)(=O)N2CCN(c3cc(Cl)cc(C(F)(F)F)c3)CC2)cc1)NO , its inhibition at 0.1 µM was 97

Item: O=C(CCCCNC(=O)N1CCc2cc(S(=O)(=O)N3CCN(c4cc(Cl)cc(C(F)(F)F)c4)CC3)ccc21)NO | inhibition at 0.1 µM: 82

Input CC(=O)N1CCc2cc(S(=O)(=O)N3CCN(c4cccc(C(F)(F)F)c4)CC3)ccc21 [AZ1, reference compound] . Output inhibition at 0.1 µM: 22

Reported inhibition at 0.1 µM of O=C(CCCCCC(=O)N1CCc2cc(S(=O)(=O)N3CCN(c4cc(Cl)cc(C(F)(F)F)c4)CC3)ccc21)NO : 7

// inhibition at 0.1 µM value for O=C(O)CCCCCNC(=O)Nc1ccc(S(=O)(=O)N2CCN(c3cc(Cl)cc(C(F)(F)F)c3)CC2)cc1 : 43

Data point: O=C(/C=C/CCCNC(=O)Nc1ccc(S(=O)(=O)N2CCN(c3cc(Cl)cc(C(F)(F)F)c3)CC2)cc1)NO ; inhibition at 0.1 µM = 66

Noted for CC(=O)N1CCc2cc(S(=O)(=O)N3CCN(c4cc(Cl)cc(C(F)(F)F)c4)CC3)ccc21 : its inhibition at 0.1 µM reads 79

----------
study-target: K. pneumoniae LpxH (KpLpxH) (Klebsiella pneumoniae subsp. pneumoniae (strain ATCC 700721 / MGH 78578))
assay-details: LpxE-coupled malachite green LpxH activity assay (KpLpxH inhibition)
Type: biochemical
assay-conditions: IC50 curves FIG. 3E/4E; read-out: IC50 of KpLpxH inhibition
test-readout: IC50 (nM)
Your answer is read as nM, so omit the unit and give the number.

IC50 recorded for this compound, O=C(CCCCCNC(=O)Nc1ccc(S(=O)(=O)N2CCN(c3cc(Cl)cc(C(F)(F)F)c3)CC2)cc1)NO , is 7.7

----------
study-target: K. pneumoniae LpxH (KpLpxH) (Klebsiella pneumoniae subsp. pneumoniae (strain ATCC 700721 / MGH 78578))
assay-details: LpxE-coupled malachite green LpxH activity assay (KpLpxH inhibition)
Type: biochemical
assay-conditions: Table 5; read-out: IC50: Average
test-readout: pIC50
# pIC50: negative log10 of molar concentration; output just the value

In plain terms, O=C(CCCCCNC(=O)Nc1ccc(S(=O)(=O)N2CCN(c3cc(Cl)cc(C(F)(F)F)c3)CC2)cc1)NO [JH-LPH-50] has a documented pIC50 of 8.10

Measured pIC50, CC(=O)N1CCc2cc(S(=O)(=O)N3CCN(c4cc(C)cc(C(F)(F)F)c4)CC3)ccc21 [JH-LPH-49] : 6.82

Lookup result for O=C(CN1CCOCC1)N1CCc2cc(S(=O)(=O)N3CCN(c4cc(Cl)cc(C(F)(F)F)c4)CC3)ccc21 [JH-LPH-70] ; measured pIC50: 7.21

Recorded result, O=C(CCCCNC(=O)Nc1ccc(S(=O)(=O)N2CCN(c3cc(Cl)cc(C(F)(F)F)c3)CC2)cc1)NO [JH-LPH-41] , pIC50: 7.14

Noted for NC(=O)N1CCc2cc(S(=O)(=O)N3CCN(c4cc(C(F)(F)F)ccn4)CC3)ccc21 [JH-LPH-91] : its pIC50 reads 6.98

Quick note, pIC50 for CC(=O)N1CCc2cc(S(=O)(=O)N3CCN(c4nccc(C(F)(F)F)n4)CC3)ccc21 [JH-LPH-93] landed at 7.49

The compound identified as NCCCNC(=O)N1CCc2cc(S(=O)(=O)N3CCN(c4cc(C(F)(F)F)cc(Cl)n4)CC3)ccc21 [JH-LPH-98] registered its pIC50 at 7.62

Sample O=C(COCc1ccc2nonc2c1)N1CCc2cc(S(=O)(=O)N3CCN(c4cc(Cl)cc(C(F)(F)F)c4)CC3)ccc21 [JH-LPH-79] ; pIC50 observed: 7.43

What the record says about CC(=O)N1CCc2cc(S(=O)(=O)N3CCN(c4cc(C(F)(F)F)cc(Cl)n4)CC3)ccc21 [JH-LPH-92] : pIC50 is 8.30

Form field pIC50, entry O=C(CCCCNC(=O)N1CCc2cc(S(=O)(=O)N3CCN(c4cc(C(F)(F)F)cc(Cl)n4)CC3)ccc21)NO [JH-LPH-96] : 8.70

Recorded result, O=C(NO)c1ccc(-c2ccccc2C(=O)Nc2ccc(S(=O)(=O)N3CCN(c4cc(Cl)cc(C(F)(F)F)c4)CC3)cc2)cc1 [JH-LPH-80] , pIC50: 6.37

For reference, reported pIC50 for O=C(CCCCCNC(=O)Nc1ccc(S(=O)(=O)N2CCN(c3cc(C(F)(F)F)cc(Cl)n3)CC2)cc1)NO [JH-LPH-104] stands at 9.64

Per the record, CC(=O)N1CCc2cc(S(=O)(=O)N3CCN(c4cc(Br)cc(C(F)(F)F)c4)CC3)ccc21 [JH-LPH-48] has pIC50 of 7.31

Field pIC50 (entry CC(=O)N1CCc2cc(S(=O)(=O)N3CCN(c4cc(F)cc(C(F)(F)F)c4)CC3)ccc21 [JH-LPH-28] ) reads 6.86

GET /value?item= O=C(CN1CCOCC1)Nc1ccc(S(=O)(=O)N2CCN(c3cc(Cl)cc(C(F)(F)F)c3)CC2)cc1 [JH-LPH-69] &field=pIC50 returns 7.10

Values were extracted from patent US20240279174A1.
